In this section we review reported IC50 values for a set of molecules.
# Target desc: AhR (Homo sapiens, UniProt P35869)
# Sequence (P35869 11-848): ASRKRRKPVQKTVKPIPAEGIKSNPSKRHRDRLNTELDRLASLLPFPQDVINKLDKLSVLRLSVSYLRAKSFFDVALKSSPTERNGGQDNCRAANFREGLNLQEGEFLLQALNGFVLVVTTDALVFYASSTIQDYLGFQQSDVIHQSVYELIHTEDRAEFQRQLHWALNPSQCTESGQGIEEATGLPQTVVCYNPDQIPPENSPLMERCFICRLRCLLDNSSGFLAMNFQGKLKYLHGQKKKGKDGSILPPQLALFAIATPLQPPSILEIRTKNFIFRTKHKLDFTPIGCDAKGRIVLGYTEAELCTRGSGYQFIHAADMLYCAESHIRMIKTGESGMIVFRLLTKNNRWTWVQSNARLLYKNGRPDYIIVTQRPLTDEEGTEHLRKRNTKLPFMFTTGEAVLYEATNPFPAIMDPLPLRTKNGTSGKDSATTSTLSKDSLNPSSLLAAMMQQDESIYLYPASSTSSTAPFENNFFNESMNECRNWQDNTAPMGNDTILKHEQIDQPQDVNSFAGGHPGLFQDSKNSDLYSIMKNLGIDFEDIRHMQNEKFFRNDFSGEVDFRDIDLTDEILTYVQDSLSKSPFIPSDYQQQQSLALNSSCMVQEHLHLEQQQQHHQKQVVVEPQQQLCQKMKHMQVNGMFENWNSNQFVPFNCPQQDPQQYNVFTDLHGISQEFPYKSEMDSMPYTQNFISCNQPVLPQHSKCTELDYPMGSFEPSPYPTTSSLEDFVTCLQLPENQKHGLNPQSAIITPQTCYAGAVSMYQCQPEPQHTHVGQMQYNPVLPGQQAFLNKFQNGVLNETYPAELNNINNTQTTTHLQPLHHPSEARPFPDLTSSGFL
# Method description: AhR inhibitory activity experiment, in vitro assay 1: HepG2-Lucia AhR cells, Lucia luciferase reporter (QUANTI-Luc)
# Assay type: cell-based
# Settings: 24 hours incubation at 37° C., Lucia luciferase in supernatant, read-out: AhR inhibitory activity C50
# Description: Test Example: AhR Inhibitory Activity Experiment When QUANTI-Luc™ (InvivoGen Company) testing reagents are used, AhR gene signaling pathways can be studied by monitoring the activity of Lucia luciferase in the cell culture supernatant. In Vitro Assay 1: Assay on Inhibitory Activity in Human Cell Lines Adherent cell layers of HepG2-Lucia™ AhR cells in a logarithmic growth phase were washed with PBS, and then the cells were isolated with trypsin. […]

Answered cases to consult:
> print(dat)
                                smiles.data     result
1  C[C@H](NC(=O)c1cc(-c2ccc(Cl)cc2)nc(-c2cnn(C3CC3)c2)n1)c1ccnc(F)c1  > 1000 nM
2  Cn1cc(-c2nc(C(=O)N[C@H]3CCc4ncccc43)cc(-c3ccc(C(F)(F)F)cc3)n2)cn1    < 50 nM
3  C[C@H](NC(=O)c1cc(-c2ccc(Cl)cc2)nc(-c2cnn(C)c2)n1)c1cccc(F)c1    < 50 nM

Consider the molecule shown here: "C[C@H](NC(=O)c1cc(-c2ccc(Cl)cc2)nc(-c2cnn(C)c2)n1)c1ccnc(F)c1" What is its recorded IC50?
< 50 nM

Data credit: patent US12668586B2
